FYI, the data here is from paper PMC12389534.

Tested on: β-catenin
Experiment: Brain β-catenin level
Format: in vivo, rat
Conditions: AlCl3-induced AD rats; mean ± SE, n = 6
Method: The brain tissues of the rats were removed and rigorously washed in isotonic saline 24 h after they were euthanized following the last behavioral test. For histological investigation, four brains per group were preserved for the whole night in 10% neutral buffered formalin. The remaining six brains were split into two sections each. […]
measured-attribute: β-Catenin (ng/L)

Suppose we examine the compound CCOC(=O)c1c(O)sc2c1CCCCC2 [Compound 2] ; what β-Catenin (ng/L) value has been reported?
4.262 ± 0.12 ^abc ng/L

Any idea what β-Catenin (ng/L) was measured for N#Cc1ccc(N2CC(=O)Oc3sc4c(c3C2=O)CCCCC4)cc1 [Compound 13] ?
11.67 ± 0.13 ^abc ng/L

What does the data say about its β-Catenin (ng/L)? Entry: O=C1CN(c2ccccc2)C(=O)c2c(sc3c2CCCCC3)O1 [Compound 11]
7.25 ± 0.04 ^abc ng/L

Value lookup for β-Catenin (ng/L); key = O=C1CN(c2ccc(O)cc2)C(=O)c2c(sc3c2CCCCC3)O1 [Compound 15]
13.86 ± 0.11 ^abc ng/L

Consider the compound CCOc1ccc(N2CC(=O)Oc3sc4c(c3C2=O)CCCCC4)cc1 [Compound 14] and give its measured β-Catenin (ng/L).
8.4 ± 0.09 ^abc ng/L

// returns reported β-Catenin (ng/L) for input CCOC(=O)c1c(OC(=O)CCl)sc2c1CCCCC2 [Compound 4]
6.17 ± 0.07 ^abc ng/L

Item under review: O=C1CN(c2ccc(Cl)cc2)C(=O)c2c(sc3c2CCCCC3)O1 [Compound 12] . Reported β-Catenin (ng/L)?
9.91 ± 0.15 ^abc ng/L

Any idea what its β-Catenin (ng/L) is? The compound is COc1ccc(N2CC(=O)Oc3sc4c(c3C2=O)CCCCC4)cc1 [Compound 16]
7.34 ± 0.12 ^abc ng/L

---

Target: BChE (Homo sapiens, UniProt P06276)
Construct: purchased Invitrogen EIABCHEF
Sequence (P06276 29-602): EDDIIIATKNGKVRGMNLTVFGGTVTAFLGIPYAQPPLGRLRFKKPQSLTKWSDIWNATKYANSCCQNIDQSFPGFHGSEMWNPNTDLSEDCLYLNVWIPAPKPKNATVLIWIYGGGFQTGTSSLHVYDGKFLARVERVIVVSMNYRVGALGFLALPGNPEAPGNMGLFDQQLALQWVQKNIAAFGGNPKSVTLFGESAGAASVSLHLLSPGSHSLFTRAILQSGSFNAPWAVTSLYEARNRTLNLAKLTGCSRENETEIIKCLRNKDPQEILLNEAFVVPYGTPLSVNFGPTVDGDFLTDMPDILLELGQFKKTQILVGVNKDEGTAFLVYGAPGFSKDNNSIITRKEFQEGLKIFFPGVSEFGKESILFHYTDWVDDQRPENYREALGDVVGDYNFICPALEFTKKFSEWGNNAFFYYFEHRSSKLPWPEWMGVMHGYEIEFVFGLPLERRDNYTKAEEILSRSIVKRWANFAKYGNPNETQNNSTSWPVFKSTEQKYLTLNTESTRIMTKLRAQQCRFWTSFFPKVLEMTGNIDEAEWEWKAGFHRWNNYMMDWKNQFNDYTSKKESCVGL
Assay: biochemical
Details: ratio of IC50 BChE to IC50 AChE; <1 = preferential BChE inhibition
Give Selectivity Index BChE/AChE for every item shown.
Give your answer as a number; write no unit.

Please provide the recorded Selectivity Index BChE/AChE for O=C1CN(c2ccc(O)cc2)C(=O)c2c(sc3c2CCCCC3)O1 , tested on BChE (Homo sapiens, UniProt P06276).
0.44

Enter reported Selectivity Index BChE/AChE observed with BChE (Homo sapiens, UniProt P06276) for CCOC(=O)c1c(O)sc2c1CCCCC2
5.21

Look up Selectivity Index BChE/AChE with BChE (Homo sapiens, UniProt P06276) for this compound: O=C1CN(c2ccc(Cl)cc2)C(=O)c2c(sc3c2CCCCC3)O1
6.04

Request body: readout Selectivity Index BChE/AChE, system BChE (Homo sapiens, UniProt P06276), query CCOC(=O)c1c(OC(=O)CCl)sc2c1CCCCC2 . Return the value.
1.36

Form field: Selectivity Index BChE/AChE recorded for O=C1CN(c2ccccc2)C(=O)c2c(sc3c2CCCCC3)O1 with BChE (Homo sapiens, UniProt P06276) (enter value)
5.18

Find Selectivity Index BChE/AChE (BChE (Homo sapiens, UniProt P06276)) for the entry COc1ccc(N2CC(=O)Oc3sc4c(c3C2=O)CCCCC4)cc1
6.89

Lab note: need Selectivity Index BChE/AChE with BChE (Homo sapiens, UniProt P06276) for entry N#Cc1ccc(N2CC(=O)Oc3sc4c(c3C2=O)CCCCC4)cc1 , please look it up.
0.84

Record lookup: for BChE (Homo sapiens, UniProt P06276), what Selectivity Index BChE/AChE belongs to CCOc1ccc(N2CC(=O)Oc3sc4c(c3C2=O)CCCCC4)cc1 ?
7.50
